Values were extracted from the nanobody polyreactivity screen of Harvey et al. (2022).

testMethodNotes: yeast display, Sf9 membrane polyspecificity reagent, FACS + sequencing; frameworks hold sequencing errors
observable: polyreactivity (PSR sort gate)

# chain, observable, value
rows = [
    ("QVQLEESGGGLVQAGGSLRLTCAASGRIFFQNTIGWYRQAPGQERELVAAITSDGSTYYADSVKGRFTISRDNAKNTVYLQMNSLKPEDTAVYYCAAEISYRWWYKLGFTSFDYWGQGTQVTVSS", "polyreactivity (PSR sort gate)", "low polyreactivity"),
    ("QVQLVESGGGLVQAGGSLRLSCAASGNIFSFNDMGWYRQAPGKERELVAGITTSESTNYADSVKGRFTISRDNAKNTVYLQMNSLKPEDTAVYYCATEILTAARDTVVYQFYLGYYYWGQGTQVTVSS", "polyreactivity (PSR sort gate)", "low polyreactivity"),
    ("QVQLVESGGGLVQAGGSLRLSCAASGFIFKSYAMGWYRQAPGKERELVAAISGRGGSTYYADSVKGRFTISRDNAKNTVYLQMNSLKPEDTAVYYCNVGPSTYYQYDYWGQGTQVTVSS", "polyreactivity (PSR sort gate)", "high polyreactivity"),
    ("QVQLVESGGGLVQAGGSLRLSCAASGRIFYNNAMGWYRQAPGKERELVATISRGGSTNYADSVKGRFTISRDNAKNTVYLQMNSLKPEDTAVYYCAAVTTRSYGYEYWGQGTQVTVSS", "polyreactivity (PSR sort gate)", "low polyreactivity"),
    ("QVQLVESGGGLVQAGGSLRLSCAASGFIFRSYAMGWYRQAPGKERELVAAISRSGGSTYYADSVKGRFTISRDNAKNTVYLQMNSLKPEDTAVYYCNTARRDREVDYWGQGTQVTVSS", "polyreactivity (PSR sort gate)", "high polyreactivity"),
    ("QVQLVESGGGLVQAGGSLRLSCAASGTTYSINAMGWYRQATGKERELVAAISSGGSTYYADSVKGRFTISRDNAKYTVYLQMNSLIPEDTAVYYCAVDPSWTYWSTYRYDYWGQGTQVTVSS", "polyreactivity (PSR sort gate)", "low polyreactivity"),
    ("QVQLVESGGGLVQAGGSLRLSCAASGSIFGTNTMGWYRQAPGKERELVAAIRLSDSSTYYADSVKGRFTISRDNAKNTVYLQMNSLKPEDTAVYYCAVDYRAYHYYRYDYWGQGTQVTVSS", "polyreactivity (PSR sort gate)", "low polyreactivity"),
    ("QVQLVESGGGLVQAGGSLRLSCAASGSIFGGYGMGWYRQAPGKERELVAAITSGSSTYYADSVKGRFTISRDNAKNTVYLQMNSLKAEDTAVYYCAARPYTHSAYEGDYWGRGTQVTVSS", "polyreactivity (PSR sort gate)", "low polyreactivity"),
    ("QVQLVESGGGLVQAGGSLRLSCAASGSTFGKYAMGWSRPAPGKERELVAAITVNAGRTYYADSVKGRFTISRDNAKNTVYLQMNSLKPEDTAVYYCNADFFTIYDYWGQGTQVTVSS", "polyreactivity (PSR sort gate)", "high polyreactivity"),
    ("QVQLVESGGGLVQAGGSLRLSCDASGSIFMYNAMGWYRQAPGKERELVAAISSSSDRTYYADSVKGRFTISRDNAKKTVYLQMNSLKPEDTAVYYCNVVYIGWRKYEYWGQGTQVTVSS", "polyreactivity (PSR sort gate)", "high polyreactivity"),
    ("QVHLVESGGCLVQAGGSLRLSCAASGNSFVSNAMGWYIQAPGKERELVAAIDSGGSTNYADSVKGRFTISRDNAKNTVYLQMNSLKPVDTAVYYCNRTSVYYYYWGQGTQVTVSS", "polyreactivity (PSR sort gate)", "low polyreactivity"),
    ("QVQLVESGGGLVQAGGSRLSCAASGLIFISYTMGWYRQAPGKERELVAAIDSSGGNTYYADSVKGRFTISRDNAKNTVYLQMNSLKPDDTAVYYCNAAWPYKSVEYCGQGTQVTVSS", "polyreactivity (PSR sort gate)", "low polyreactivity"),
    ("QVQLVESGGGLDQAGGSLRLSCAASGFIFWRNTMGWYRPAPGKERELVAVITRGGSTYYADSVKGRFTISRDTAKNTVYLQMNSLKPEDTAVYNSAARNDYFKTFSGYDYWGQGTQVTVSS", "polyreactivity (PSR sort gate)", "low polyreactivity"),
    ("QVKLVESGGGLVQAGGSLRLTCAASGITFFIYAMGWYRQAPGKERELFYAIRSGGSTNYADSVKGRFTISRDNAKNTVYLQMNSLKPEDTAVYYCAADVYGTVRRVGWYYVGEGYDYWGQGTQLTVSS", "polyreactivity (PSR sort gate)", "low polyreactivity"),
    ("QVQLVESGGGLVQAGGSLLLSCAASGSIFGWYVMGWYRQEPGKERELVAAISSVGSTYYADSVKGRFTISRDNAKNTVYLQMNSLKPEDTAVYYCATDSNPKWDYALDSWGQGTQVTVSS", "polyreactivity (PSR sort gate)", "low polyreactivity"),
    ("QVQLVESGGGVVQAGGSLRLSCAASGSTMGYYAMGWYRPAPGKERELVATITRSGGNTYYADSVKGRFTISRDNAKNTVYLQMNSLKPDDNAVYYCAARRLYGSQRGYWGHGTQVTVSS", "polyreactivity (PSR sort gate)", "high polyreactivity"),
    ("QVQLVETGGGLVQAGGTLRLSCAPSGYTIYFYALGWDIQAPGTERELVAAISGSGGRTYYADSVKGRFTISRDNAKNTVYLQMNSLKPEDTAVYYCAARKYKRIYRISSGIGYYWGQGTQVTVSS", "polyreactivity (PSR sort gate)", "high polyreactivity"),
    ("QVQLVESGGGLVQAGGSLRLSCAASGFILVFYAMGWYRQAPGKERELVAAIDWSGTITYYADSVKGRFTISRDNAKKTVYLQINSLKPEDTAVYYCAADGEPFYDFDYWGQRTQVTVSS", "polyreactivity (PSR sort gate)", "high polyreactivity"),
    ("QVQLVESGGGLVQAGVSLRLSCAASGSFFGYYTMGWYRQAPGTERELVAAISASGGSTYYADSVKGRFTISRDNANNTVYLQLNSLKPEDTAVYYCAATSAANFPRGYYYWGQGTQVTVSS", "polyreactivity (PSR sort gate)", "high polyreactivity"),
    ("QVQLVESGGGLVQAGGSLRLSCAASGRTFLGYTMGWYRQAPGKERELVAAITSGGSTYYADSVKGRFTISRDNAKNPVYLQMNSLKPEDTAVYYCARGYFEQVQYWYDNEYDFWGQGTQVTGSS", "polyreactivity (PSR sort gate)", "low polyreactivity"),
    ("QVQLVESGGGLVQAGGSLRLSCAASGSIFYGNAMGWYRQAPGKERELVASITYSGGTTNYADSVKGRFTISRDNAKNTVYLQMNCLKPEDTAVYYCNADIYPDRYGSTNYDFNYWGQGTQVTVSS", "polyreactivity (PSR sort gate)", "low polyreactivity"),
]
